The values you see were collected from paper PMC9482650.

# assayed_target: MAGI1_1, Q96QZ7
# Sequence (Q96QZ7 1-106): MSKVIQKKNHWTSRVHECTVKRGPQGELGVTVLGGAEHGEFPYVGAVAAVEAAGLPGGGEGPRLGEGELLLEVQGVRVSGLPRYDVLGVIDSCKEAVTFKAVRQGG
# measurement_notes: holdup assay
# Set-up: key: below the threshold = too weak to quantify, mostly under pKd 3.1 to 4
# assay_conditions: plain residues with an end cap or a label only (N-terminal biotin on a linker: ado-ado)
parameter_measured: pKd

THREVKFTSL [CD46, P15529] :: below the threshold
EFKQTSSFLV [JAM1, Q9Y624] :: 3.49
PGKKPEDSRV [SLCO2B1, O94956] :: below the threshold
